EC50 by entry:
Molecular target: T1, human ROR1 (full-length, on the cell surface) (human, UniProt Q01973 30-937)
T1 construct: whole, on cells; the tumour cell lines carry their own ROR1; also called Ba/F3-ROR1 cells; Jeko-1
T1 sequence (Q01973 30-937): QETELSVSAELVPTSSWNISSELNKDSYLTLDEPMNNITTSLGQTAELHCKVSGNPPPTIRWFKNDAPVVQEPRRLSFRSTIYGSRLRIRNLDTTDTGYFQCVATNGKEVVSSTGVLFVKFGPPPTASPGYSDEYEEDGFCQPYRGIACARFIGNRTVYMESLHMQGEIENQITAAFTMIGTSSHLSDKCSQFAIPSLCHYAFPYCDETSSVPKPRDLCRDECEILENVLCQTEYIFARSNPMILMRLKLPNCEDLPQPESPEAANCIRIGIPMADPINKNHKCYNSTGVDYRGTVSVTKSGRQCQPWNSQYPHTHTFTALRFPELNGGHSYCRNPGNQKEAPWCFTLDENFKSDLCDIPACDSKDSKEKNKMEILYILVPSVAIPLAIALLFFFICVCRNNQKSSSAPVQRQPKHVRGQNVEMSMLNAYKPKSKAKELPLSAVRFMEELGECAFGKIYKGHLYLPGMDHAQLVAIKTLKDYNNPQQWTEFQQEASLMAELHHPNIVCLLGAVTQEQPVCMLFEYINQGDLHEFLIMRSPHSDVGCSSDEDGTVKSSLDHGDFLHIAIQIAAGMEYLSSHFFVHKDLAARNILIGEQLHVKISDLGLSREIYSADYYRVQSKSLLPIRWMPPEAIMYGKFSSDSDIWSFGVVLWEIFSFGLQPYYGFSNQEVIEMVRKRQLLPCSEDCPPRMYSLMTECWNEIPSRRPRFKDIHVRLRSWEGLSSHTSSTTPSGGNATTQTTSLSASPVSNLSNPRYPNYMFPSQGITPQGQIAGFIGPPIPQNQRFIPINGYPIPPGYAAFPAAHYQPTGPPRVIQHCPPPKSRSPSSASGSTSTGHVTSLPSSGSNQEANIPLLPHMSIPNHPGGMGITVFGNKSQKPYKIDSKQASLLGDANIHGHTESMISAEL
Assay: flow cytometry, Jeko-1 cells
Experimental: The affinities of the anti-human ROR1 humanized antibodies to Ba/F3-ROR1, Jeko-1, HT-29 and A549 cells were detected by flow cytometry. The specific experimental steps were as follows: the BaBF3-ROR1, Jeko-1, HT-29 and A549 cells were incubated with the purified humanized antibodies of different concentration gradients on ice for 30 minutes, and the anti-ROR1 antibody UC961 with human IgG1 and the anti-TNP antibody were used as positive and negative controls, respectively.
Your answer is read as pM, so omit the unit and give the number.

Reference set, count: 2
binder="19F6-Hu35V5 (antibody, human IgG1, kappa, V domains shown, humanized, human IgG1 / kappa) VH: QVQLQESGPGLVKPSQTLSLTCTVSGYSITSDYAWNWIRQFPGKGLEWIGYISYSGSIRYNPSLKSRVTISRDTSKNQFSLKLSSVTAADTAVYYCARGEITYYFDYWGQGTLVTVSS VL: ETTLTQSPAFMSATPGDKVTISCKASTDIDDDMNWYQQKPGKPPKLIISEGNTLRPGIPPRFSSSGYGTDFTFTINNIKSEDAATYYCLQSNDLPLTFGQGTKLEIKR" test_value=130
binder="19F6-Hu34 (antibody, human IgG1, kappa, V domains shown, humanized, human IgG1 / kappa) VH: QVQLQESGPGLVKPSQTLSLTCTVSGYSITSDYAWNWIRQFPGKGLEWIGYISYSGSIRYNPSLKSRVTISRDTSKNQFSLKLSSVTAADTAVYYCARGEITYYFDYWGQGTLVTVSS VL: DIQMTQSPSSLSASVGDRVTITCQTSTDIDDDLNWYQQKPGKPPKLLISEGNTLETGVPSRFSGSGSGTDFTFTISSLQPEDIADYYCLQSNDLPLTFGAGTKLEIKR" test_value=180

Consider the record given below.
What the record says about 3D8-HuC24 (antibody, human IgG1, kappa, V domains shown, humanized, human IgG1 / kappa) VH: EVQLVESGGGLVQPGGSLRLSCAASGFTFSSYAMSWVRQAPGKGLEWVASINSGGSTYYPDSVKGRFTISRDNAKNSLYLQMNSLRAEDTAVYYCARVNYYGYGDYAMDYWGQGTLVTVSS VL: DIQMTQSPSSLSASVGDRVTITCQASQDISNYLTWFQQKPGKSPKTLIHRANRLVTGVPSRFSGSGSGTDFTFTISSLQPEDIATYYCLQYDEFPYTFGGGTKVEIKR : EC50 is 40

Every entry's value here was drawn from patent US20240018237A1.
